Numbers sourced from patent US7250441B2.

Measured log10 of IC50 accompanies every entry in the list below.
- systemTested: HCV RdRp NS5B d21BK (NS5B from the BK strain, genotype 1b) (Hepatitis C virus genotype 1b)
- Construct: NS5B from the BK strain (genotype 1b) is expressed in E coli as a protein in which the 21 C-terminal amino acids are replaced
- Sequence (P26663 2420-2989): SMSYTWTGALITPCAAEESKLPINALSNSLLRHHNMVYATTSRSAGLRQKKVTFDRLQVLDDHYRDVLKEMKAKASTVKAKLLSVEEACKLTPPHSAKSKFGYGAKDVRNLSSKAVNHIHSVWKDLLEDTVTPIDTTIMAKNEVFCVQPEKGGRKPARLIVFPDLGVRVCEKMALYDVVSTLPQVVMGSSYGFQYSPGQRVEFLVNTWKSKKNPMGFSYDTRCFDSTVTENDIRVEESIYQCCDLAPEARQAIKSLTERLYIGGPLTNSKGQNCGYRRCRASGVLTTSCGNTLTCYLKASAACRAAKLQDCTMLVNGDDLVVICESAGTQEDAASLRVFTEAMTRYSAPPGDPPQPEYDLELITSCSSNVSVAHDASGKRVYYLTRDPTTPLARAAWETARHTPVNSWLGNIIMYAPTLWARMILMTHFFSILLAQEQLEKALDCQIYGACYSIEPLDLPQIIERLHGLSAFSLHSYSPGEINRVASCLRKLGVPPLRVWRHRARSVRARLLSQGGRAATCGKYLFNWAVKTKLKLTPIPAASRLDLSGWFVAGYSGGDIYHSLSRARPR
- assayName: Hepatitis C polymerase inhibition assay, radioactive nucleotide incorporation with filter capture
valueKind: log10 of IC50 (log10 of the value in µM)

> print(dat)
                                    compound      valuekind  measuredresult
 1  CCCC1(C(=O)O)CCc2c1[nH]c1c(Cl)ccc(Cl)c21 (stereo not shown) [Example 3]  log10 of IC50           -0.26
 2  CCCC1(C(=O)O)CCc2c1[nH]c1c(C)ccc(Br)c21 (stereo not shown) [Example 11]  log10 of IC50            0.28
 3  C=CCC1(C(=O)O)CCc2c1[nH]c1c(C)cc(F)c(Br)c21 (stereo not shown) [Example 10]  log10 of IC50            0.51
 4  CCCC1(C(=O)O)CCc2c1[nH]c1c(F)ccc(C#N)c21 (stereo not shown) [Example 21]  log10 of IC50            0.91
 5  CCCC1(C(=O)O)CCCc2c1[nH]c1c(F)ccc(C#N)c21 (stereo not shown) [Example 25]  log10 of IC50            1.00
 6  CCC1(C(=O)O)CCCc2c1[nH]c1c(Cl)ccc(Cl)c21 (stereo not shown) [Example 23]  log10 of IC50            0.99
 7  C=CCC1(C(=O)O)CCc2c1[nH]c1c(Cl)ccc(Cl)c21 (stereo not shown) [Example 1]  log10 of IC50            0.08
 8  C=CCC1(C(=O)O)CCc2c1[nH]c1c(C)cc(F)c(C#N)c21 (stereo not shown) [Example 19]  log10 of IC50            0.80
 9  CCCC1(CC(=O)O)CCCc2c1[nH]c1c(F)ccc(C#N)c21 (stereo not shown) [Example 32]  log10 of IC50            0.30
10  N#Cc1ccc(F)c2[nH]c3c(c12)CCCC3(CC1CCC1)C(=O)O (stereo not shown) [Example 26]  log10 of IC50            1.20
11  CCCC1(C(=O)O)CCc2c1[nH]c1c(F)ccc(Br)c21 (stereo not shown) [Example 12]  log10 of IC50            0.46
12  C=CCC1(CC(=O)O)CCCc2c1[nH]c1c(F)ccc(C#N)c21 (stereo not shown) [Example 31]  log10 of IC50           -0.43
13  CCCCC1(C(=O)O)CCc2c1[nH]c1c(C)cc(F)c(C#N)c21 (stereo not shown) [Example 17]  log10 of IC50            0.18
14  CCCC1(C(=O)O)CCc2c1[nH]c1c(C)ccc(C#N)c21 (stereo not shown) [Example 20]  log10 of IC50            0.67
15  CCCC1(C(=O)O)CCCc2c1[nH]c1c(Cl)ccc(Cl)c21 (stereo not shown) [Example 24]  log10 of IC50            0.51
16  CCCC1(CC(=O)O)CCCc2c1[nH]c1c(C(N)=O)ccc(C#N)c21 (stereo not shown) [Example 33]  log10 of IC50            0.77
17  CCCC1(C(=O)O)CCCc2c1[nH]c1c(Cl)ccc(C(F)(F)F)c21 (stereo not shown) [Example 27]  log10 of IC50            0.76
18  C=CCC1(C(=O)O)CCc2c1[nH]c1c(F)ccc(Br)c21 (stereo not shown) [Example 9]  log10 of IC50            0.81
19  CCCCC1(C(=O)O)CCc2c1[nH]c1c(C)ccc(C#N)c21 (stereo not shown) [Example 15]  log10 of IC50            0.66
